This collection of values is drawn from patent US11141452B2.

- system-name: UniProtKB P41143
- Sequence (P41143 whole entry): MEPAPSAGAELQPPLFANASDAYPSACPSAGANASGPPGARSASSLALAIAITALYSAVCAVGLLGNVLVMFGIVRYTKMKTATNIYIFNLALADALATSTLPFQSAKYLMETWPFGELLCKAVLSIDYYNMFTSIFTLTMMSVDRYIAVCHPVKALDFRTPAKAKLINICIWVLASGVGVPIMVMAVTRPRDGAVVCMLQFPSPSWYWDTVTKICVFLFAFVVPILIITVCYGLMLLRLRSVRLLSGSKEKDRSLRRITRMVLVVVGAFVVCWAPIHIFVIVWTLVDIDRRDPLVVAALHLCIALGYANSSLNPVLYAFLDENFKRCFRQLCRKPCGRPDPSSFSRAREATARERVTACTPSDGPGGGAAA
- assay-details: Radioligand binding assay at δ opioid receptor
- applied-conditions: Ki^δ (nM)
- Experimental: Binding affinities of these ligands were measured on radioligand binding assays. […] ([43]).
Non-standard residues stand in square brackets, D forms with d. Residues, ends and D or L forms follow the SMILES beside them. *: point of attachment. NH(3,5-(CF3)2-benzyl) = FC(F)(F)c1cc(CN*)cc(C(F)(F)F)c1; NMePhe(4-F) = CN[C@@H](Cc1ccc(F)cc1)C(=O)O; Dmt = Cc1cc(O)cc(C)c1C[C@H](N)C(=O)O; NMeF = CN[C@@H](Cc1ccccc1)C(=O)O
Listed here are molecules together with their documented Ki.
assay-endpoint: Ki (nM)

• CC(C)C[C@H](NC(=O)[C@@H]1CCCN1C(=O)[C@H](CO)NC(=O)[C@H](Cc1ccc(F)cc1)N(C)C(=O)CNC(=O)[C@@H](C)NC(=O)[C@@H](N)Cc1ccc(O)cc1)C(=O)N[C@@H](Cc1c[nH]c2ccccc12)C(=O)NCc1cc(C(F)(F)F)cc(C(F)(F)F)c1 [AKG134] (H-Y[dA]G[NMePhe(4-F)]SPLW-{NH(3,5-(CF3)2-benzyl)}) = 7
• CC(C)C[C@H](NC(=O)[C@@H]1CCCN1C(=O)[C@H](CCC(N)=O)NC(=O)[C@H](Cc1ccc(F)cc1)N(C)C(=O)CNC(=O)[C@@H](C)NC(=O)[C@@H](N)Cc1ccc(O)cc1)C(=O)N[C@@H](Cc1c[nH]c2ccccc12)C(=O)NCc1cc(C(F)(F)F)cc(C(F)(F)F)c1 = 0.7
• CC(C)C[C@H](NC(=O)[C@@H]1CCCN1C(=O)CNC(=O)[C@H](Cc1ccccc1)N(C)C(=O)CNC(=O)[C@@H](C)NC(=O)[C@@H](N)Cc1ccc(O)cc1)C(=O)N[C@@H](Cc1c[nH]c2ccccc12)C(=O)NCc1cc(C(F)(F)F)cc(C(F)(F)F)c1 [AKG113] (H-Y[dA]G[NMeF]GPLW-{NH(3,5-(CF3)2-benzyl)}) = 46
• CC(C)C[C@H](NC(=O)[C@@H]1CCCN1C(=O)[C@H](CC(N)=O)NC(=O)[C@H](Cc1ccccc1)NC(=O)CNC(=O)[C@@H](C)NC(=O)[C@@H](N)Cc1ccc(O)cc1)C(=O)N[C@@H](Cc1c[nH]c2ccccc12)C(=O)NCc1cc(C(F)(F)F)cc(C(F)(F)F)c1 = 17
• Cc1cc(O)cc(C)c1C[C@H](N)C(=O)N[C@H](C)C(=O)NCC(=O)N(C)[C@@H](Cc1ccc(F)cc1)C(=O)N[C@@H](CO)C(=O)N1CCC[C@H]1C(=O)N[C@@H](CC(C)C)C(=O)N[C@@H](Cc1c[nH]c2ccccc12)C(=O)NCc1cc(C(F)(F)F)cc(C(F)(F)F)c1 [AKG135] (H-[Dmt][dA]G[NMePhe(4-F)]SPLW-{NH(3,5-(CF3)2-benzyl)}; N-terminus assumed) = 0.5
• CC(C)C[C@H](NC(=O)[C@@H]1CCCN1C(=O)CNC(=O)[C@H](Cc1ccc(F)cc1)N(C)C(=O)CNC(=O)[C@@H](C)NC(=O)[C@@H](N)Cc1ccc(O)cc1)C(=O)N[C@@H](Cc1c[nH]c2ccccc12)C(=O)NCc1cc(C(F)(F)F)cc(C(F)(F)F)c1 [AKG131] (H-Y[dA]G[NMePhe(4-F)]GPLW-{NH(3,5-(CF3)2-benzyl)}) = 17
• Cc1cc(O)cc(C)c1C[C@H](N)C(=O)N[C@H](C)C(=O)NCC(=O)N(C)[C@@H](Cc1ccccc1)C(=O)N[C@@H](CCC(N)=O)C(=O)NCC(=O)N1CCC[C@H]1C(=O)N[C@@H](CC(C)C)C(=O)N[C@@H](Cc1c[nH]c2ccccc12)C(=O)NCc1cc(C(F)(F)F)cc(C(F)(F)F)c1 [AKG-SK-146] (H-[Dmt][dA]G[NMeF]QGPLW-{NH(3,5-(CF3)2-benzyl)}; N-terminus assumed) = 0.6
• Cc1cc(O)cc(C)c1C[C@H](N)C(=O)N[C@H](C)C(=O)NCC(=O)N(C)[C@@H](Cc1ccccc1)C(=O)N[C@@H](CO)C(=O)N1CCC[C@H]1C(=O)N[C@@H](CC(C)C)C(=O)N[C@@H](Cc1c[nH]c2ccccc12)C(=O)NCc1cc(C(F)(F)F)cc(C(F)(F)F)c1 [AKG132] (H-[Dmt][dA]G[NMeF]SPLW-{NH(3,5-(CF3)2-benzyl)}) = 2
